Biological target: human full-length recombinant PKC βII (Homo sapiens)
Construct: Active human full-length recombinant PKC βII; purchased Invitrogen GmbH, Darmstadt, Germany
Assay: Determination of PKC βII inhibition (Caliper mobility-shift kinase assay, Fluorescein-RFARKGSLRQKNV peptide substrate)
Type: biochemical
Settings: example compounds at a final concentration of 1.14 μM (±0.15 μM)
Assay Readout: inhibition at 1.14 µM (%)
Supply the numeric figure in %, leaving out any unit text.

Annotate the compound Cc1n[nH]c2nc(-c3ccc(O)c(F)c3)cc(C(=O)N3CCC4CNCC43)c12 (centres unmarked) with its measured inhibition at 1.14 µM.
60

Annotate the compound CCC[C@H]1CN(C(=O)c2cc(-c3ccc(O)cc3)nc3[nH]nc(C)c23)CCN1 with its measured inhibition at 1.14 µM.
88

Annotate the compound Cc1n[nH]c2nc(-c3ccc(O)c(Cl)c3)cc(C(=O)N3CCNCC3)c12 with its measured inhibition at 1.14 µM.
41

Annotate the compound Cc1n[nH]c2nc(-c3ccc(O)cc3F)cc(C(=O)N3CCNC(C4CC4)C3)c12 (centres unmarked) with its measured inhibition at 1.14 µM.
84

Annotate the compound C[C@@H]1CN(C(=O)c2cc(-c3ccc(O)cc3)nc3[nH]nc(C(F)(F)F)c23)CCN1 with its measured inhibition at 1.14 µM.
71

Annotate the compound CCC1(N)CCN(C(=O)c2cc(-c3ccc(O)cc3F)nc3[nH]nc(C)c23)CC1 with its measured inhibition at 1.14 µM.
84

Annotate the compound Cc1n[nH]c2nc(-c3ccc(O)cc3)cc(C(=O)NC3CC4(CCNCC4)c4ccccc43)c12 (centres unmarked) with its measured inhibition at 1.14 µM.
96

Annotate the compound Cc1n[nH]c2nc(-c3ccc(O)c(F)c3)cc(C(=O)N3CC[C@@H](N(C)C)C3)c12 with its measured inhibition at 1.14 µM.
35

Annotate the compound Cc1n[nH]c2nc(-c3ccc(O)cc3)cc(C(=O)N3CCNCC3Cc3ccccc3)c12 (centres unmarked) with its measured inhibition at 1.14 µM.
93

Annotate the compound Cc1n[nH]c2nc(-c3ccc(O)cc3)cc(C(=O)NC3CCN(C)CC3)c12 with its measured inhibition at 1.14 µM.
88

Annotate the compound Cc1cc(O)ccc1-c1cc(C(=O)N2CCNCC2c2cccc(F)c2F)c2c(C)n[nH]c2n1 (centres unmarked) with its measured inhibition at 1.14 µM.
99

Annotate the compound Cc1n[nH]c2nc(-c3ccc(O)cc3)cc(C(=O)N3CCN[C@@H](CC(C)C)C3)c12 with its measured inhibition at 1.14 µM.
99

Annotate the compound CCN1CC2CC1CN2C(=O)c1cc(-c2ccc(O)c(F)c2)nc2[nH]nc(C)c12 (centres unmarked) with its measured inhibition at 1.14 µM.
28

Annotate the compound COc1ccccc1C1CNCCN1C(=O)c1cc(-c2ccc(O)cc2)nc2[nH]nc(C)c12 (centres unmarked) with its measured inhibition at 1.14 µM.
82

Annotate the compound CO[C@H]1CNC[C@@H]1NC(=O)c1cc(-c2ccc(O)cc2C)nc2[nH]nc(C)c12 with its measured inhibition at 1.14 µM.
84

Annotate the compound Cc1n[nH]c2nc(-c3ccc(O)cc3)cc(C(=O)N3CCNCC3c3cc(F)cc(F)c3)c12 (centres unmarked) with its measured inhibition at 1.14 µM.
93

Annotate the compound Cc1n[nH]c2nc(-c3ccc(O)cc3F)cc(C(=O)N3CCNCC3)c12 with its measured inhibition at 1.14 µM.
101

Annotate the compound COC[C@H]1CN(C(=O)c2cc(-c3ccc(O)cc3)nc3[nH]nc(C)c23)CCN1 with its measured inhibition at 1.14 µM.
94

Annotate the compound Cc1n[nH]c2nc(-c3ccc(O)cc3)cc(C(=O)NC3CCCC[C@@H]3N)c12 (mixture of isomers) with its measured inhibition at 1.14 µM.
75

Annotate the compound Cc1n[nH]c2nc(-c3ccc(O)cc3)cc(C(=O)N3CCN(C)CC3)c12 with its measured inhibition at 1.14 µM.
53

Annotate the compound Cc1n[nH]c2nc(-c3ccc(O)c(F)c3)cc(C(=O)NCC3CCNC3)c12 (centres unmarked) with its measured inhibition at 1.14 µM.
52

Annotate the compound CCCC1CN(C(=O)c2cc(-c3ccc(O)cc3F)nc3[nH]nc(C)c23)C(CCC)CN1 (centres unmarked) with its measured inhibition at 1.14 µM.
96

Annotate the compound Cc1n[nH]c2nc(-c3ccc(O)cc3)cc(C(=O)N3C[C@]4(C)CN(C)C[C@](C)(C3)C4O)c12 (some centres unmarked) with its measured inhibition at 1.14 µM.
88

Annotate the compound Cc1n[nH]c2nc(-c3ccc(O)cc3)cc(C(=O)NCC3CCCCN3)c12 (centres unmarked) with its measured inhibition at 1.14 µM.
83

Annotate the compound Cc1n[nH]c2nc(-c3ccc(O)cc3)cc(C(=O)N3CCCC4(CCNC4)C3)c12 (centres unmarked) with its measured inhibition at 1.14 µM.
65

Annotate the compound O=C(c1cc(-c2ccc(O)cc2)nc2[nH]nc(C(F)(F)F)c12)N1CCC2(CC1)CNC2 with its measured inhibition at 1.14 µM.
48

Annotate the compound Cc1n[nH]c2nc(-c3ccc(O)c(F)c3)cc(C(=O)N3C[C@H]4CC[C@@H](C3)C4N)c12 (some centres unmarked) with its measured inhibition at 1.14 µM.
91

Annotate the compound Cc1n[nH]c2nc(-c3ccc(O)c(F)c3)cc(C(=O)N3CCC4(CCNC4)C3)c12 (centres unmarked) with its measured inhibition at 1.14 µM.
67

Annotate the compound CCc1n[nH]c2nc(-c3ccc(O)cc3)cc(C(=O)NC3CCN(C)CC3)c12 with its measured inhibition at 1.14 µM.
44

Annotate the compound COc1cc(O)ccc1-c1cc(C(=O)N2CCNC[C@@H]2C)c2c(C)n[nH]c2n1 with its measured inhibition at 1.14 µM.
94

Annotate the compound Cc1cc(O)ccc1-c1cc(C(=O)N2CCNCC2c2ccc(F)cc2)c2c(C)n[nH]c2n1 (centres unmarked) with its measured inhibition at 1.14 µM.
98

Annotate the compound Cc1n[nH]c2nc(-c3ccc(O)cc3)cc(C(=O)N3CCNCC3c3ccc(Cl)cc3)c12 (centres unmarked) with its measured inhibition at 1.14 µM.
87

----------
Molecular target: human full-length recombinant PKC βII (Homo sapiens, UniProt P05771)
Construct: Active human full-length recombinant PKC βII; purchased Invitrogen GmbH, Darmstadt, Germany
Sequence (P05771 1-673 isoform P05771-2): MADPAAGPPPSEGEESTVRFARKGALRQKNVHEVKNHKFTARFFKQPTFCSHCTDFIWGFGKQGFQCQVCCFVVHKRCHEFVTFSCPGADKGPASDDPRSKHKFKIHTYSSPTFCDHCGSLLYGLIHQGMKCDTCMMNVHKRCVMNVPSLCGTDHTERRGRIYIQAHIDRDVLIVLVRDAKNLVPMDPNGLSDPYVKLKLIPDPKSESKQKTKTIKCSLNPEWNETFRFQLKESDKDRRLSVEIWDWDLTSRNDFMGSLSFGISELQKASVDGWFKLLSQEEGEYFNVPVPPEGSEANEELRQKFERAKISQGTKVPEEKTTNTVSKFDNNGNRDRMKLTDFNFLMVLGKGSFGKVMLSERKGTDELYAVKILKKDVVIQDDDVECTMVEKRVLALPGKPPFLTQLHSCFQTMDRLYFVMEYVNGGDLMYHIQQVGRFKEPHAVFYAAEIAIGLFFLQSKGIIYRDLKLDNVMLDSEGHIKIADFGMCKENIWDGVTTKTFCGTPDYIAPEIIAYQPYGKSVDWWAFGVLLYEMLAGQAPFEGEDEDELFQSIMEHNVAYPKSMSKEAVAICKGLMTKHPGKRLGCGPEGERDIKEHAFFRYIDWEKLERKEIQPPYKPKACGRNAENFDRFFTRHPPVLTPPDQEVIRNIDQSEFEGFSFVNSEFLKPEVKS
Assay: Determination of PKC βII inhibition (Caliper mobility-shift kinase assay, Fluorescein-RFARKGSLRQKNV peptide substrate)
Format: biochemical
Conditions: example compounds at a final concentration of 1.14 μM (±0.15 μM)
Tag: Satisfied if measured inhibition at 1.14 µM is not below 90%, Not satisfied if it is.

Is reported inhibition at 1.14 µM greater than or equal to 90% here: Cc1n[nH]c2nc(-c3ccc(O)cc3)cc(C(=O)N3CCC4(CCNCC4)C3)c12
Not satisfied

Is reported inhibition at 1.14 µM greater than or equal to 90% here: Cc1n[nH]c2nc(-c3ccc(O)cc3F)cc(C(=O)N3CCN[C@@H](C)[C@H]3C)c12 (racemic)
Satisfied

Is reported inhibition at 1.14 µM greater than or equal to 90% here: CC(=O)N1CCN(C(=O)c2cc(-c3ccc(O)c(F)c3)nc3[nH]nc(C)c23)CC1
Not satisfied

Is reported inhibition at 1.14 µM greater than or equal to 90% here: Cc1n[nH]c2nc(-c3ccc(O)cc3)cc(C(=O)N3CCNCC3(C)c3ccccc3)c12 (centres unmarked)
Satisfied

Is reported inhibition at 1.14 µM greater than or equal to 90% here: NC1CCN(C(=O)c2cc(-c3ccc(O)cc3)nc3[nH]nc(C(F)(F)F)c23)CC1
Not satisfied

Is reported inhibition at 1.14 µM greater than or equal to 90% here: Cc1n[nH]c2nc(-c3ccc(O)c(F)c3)cc(C(=O)NCC(C)(C)N3CCN(C)CC3)c12
Not satisfied

Is reported inhibition at 1.14 µM greater than or equal to 90% here: Cc1n[nH]c2nc(-c3ccc(O)c(F)c3)cc(C(=O)NCC3CCCCN3)c12 (centres unmarked)
Not satisfied

Is reported inhibition at 1.14 µM greater than or equal to 90% here: Cc1n[nH]c2nc(-c3ccc(O)cc3F)cc(C(=O)N3CCNCC34CC4)c12
Satisfied

Is reported inhibition at 1.14 µM greater than or equal to 90% here: COC(=O)[C@H]1CNCCN1C(=O)c1cc(-c2ccc(O)cc2)nc2[nH]nc(C)c12
Satisfied

Is reported inhibition at 1.14 µM greater than or equal to 90% here: Cc1n[nH]c2nc(-c3ccc(O)cc3)cc(C(=O)N3CC(CN)C3)c12
Satisfied

Is reported inhibition at 1.14 µM greater than or equal to 90% here: Cc1n[nH]c2nc(-c3ccc(O)cc3F)cc(C(=O)N3CCN[C@H]4CCCC[C@@H]43)c12
Satisfied

Is reported inhibition at 1.14 µM greater than or equal to 90% here: Cc1n[nH]c2nc(-c3ccc(O)c(F)c3)cc(C(=O)N3CCC4(CCNCC4)C3)c12
Not satisfied

Is reported inhibition at 1.14 µM greater than or equal to 90% here: Cc1n[nH]c2nc(-c3ccc(O)cc3)cc(C(=O)NC3CCN(C4CCCCC4)CC3)c12
Not satisfied

Is reported inhibition at 1.14 µM greater than or equal to 90% here: Cc1n[nH]c2nc(-c3ccc(O)cc3)cc(C(=O)N3CCNCC3c3ccccc3F)c12 (centres unmarked)
Satisfied

Is reported inhibition at 1.14 µM greater than or equal to 90% here: Cc1n[nH]c2nc(-c3ccc(O)cc3)cc(C(=O)NC3CCNC4(CCC4)C3)c12 (centres unmarked)
Not satisfied

Is reported inhibition at 1.14 µM greater than or equal to 90% here: Cc1n[nH]c2nc(-c3ccc(O)cc3F)cc(C(=O)N3CC(C)NCC34CCCC4)c12 (centres unmarked)
Satisfied

Is reported inhibition at 1.14 µM greater than or equal to 90% here: Cc1n[nH]c2nc(-c3ccc(O)cc3)cc(C(=O)N[C@@H]3CCCNC3)c12
Satisfied

Is reported inhibition at 1.14 µM greater than or equal to 90% here: Cc1n[nH]c2nc(-c3ccc(O)cc3)cc(C(=O)N3C[C@@H](C)N[C@@H](C)C3)c12
Satisfied

Is reported inhibition at 1.14 µM greater than or equal to 90% here: Cc1n[nH]c2nc(-c3ccc(O)cc3)cc(C(=O)NCCC(C)(C)N)c12
Not satisfied

Is reported inhibition at 1.14 µM greater than or equal to 90% here: Cc1n[nH]c2nc(-c3ccc(O)cc3)cc(C(=O)N(CCc3ccccc3)[C@@H]3CCCNC3)c12
Not satisfied

Is reported inhibition at 1.14 µM greater than or equal to 90% here: Cc1n[nH]c2nc(-c3ccc(O)cc3)cc(C(=O)N3CC(C)(C)NCC3C)c12 (centres unmarked)
Satisfied

Is reported inhibition at 1.14 µM greater than or equal to 90% here: Cc1n[nH]c2nc(-c3ccc(O)c(F)c3)cc(C(=O)NC3CNC3)c12
Not satisfied

Is reported inhibition at 1.14 µM greater than or equal to 90% here: CCc1n[nH]c2nc(-c3ccc(O)cc3)cc(C(=O)N[C@H]3CNC[C@@H]3OC)c12
Not satisfied

Is reported inhibition at 1.14 µM greater than or equal to 90% here: Cc1n[nH]c2nc(-c3ccc(O)cc3)cc(C(=O)N3CC[C@H](N(C)C)C3)c12
Not satisfied

Is reported inhibition at 1.14 µM greater than or equal to 90% here: Cc1n[nH]c2nc(-c3ccc(O)cc3F)cc(C(=O)N3CCNC[C@H]3c3ccccc3)c12
Satisfied

Is reported inhibition at 1.14 µM greater than or equal to 90% here: Cc1n[nH]c2nc(-c3ccc(O)cc3)cc(C(=O)N3CCNCC34CCCC4)c12
Satisfied

Is reported inhibition at 1.14 µM greater than or equal to 90% here: Cc1cc(-c2cc(C(=O)N3CCNCC3)c3c(C)n[nH]c3n2)ccc1O
Not satisfied

Is reported inhibition at 1.14 µM greater than or equal to 90% here: Cc1n[nH]c2nc(-c3ccc(O)cc3)cc(C(=O)N[C@H]3C[C@H](N)C3)c12
Not satisfied

Is reported inhibition at 1.14 µM greater than or equal to 90% here: Cc1n[nH]c2nc(-c3ccc(O)cc3)cc(C(=O)N3CCNCC3c3ccc(F)c(F)c3)c12 (centres unmarked)
Satisfied

Is reported inhibition at 1.14 µM greater than or equal to 90% here: CNC1CCN(C(=O)c2cc(-c3ccc(O)cc3)nc3[nH]nc(C)c23)C1 (centres unmarked)
Satisfied
